# target of assay: AURKA (human) (UniProt O14965)
# Sequence (O14965 whole entry, looked up): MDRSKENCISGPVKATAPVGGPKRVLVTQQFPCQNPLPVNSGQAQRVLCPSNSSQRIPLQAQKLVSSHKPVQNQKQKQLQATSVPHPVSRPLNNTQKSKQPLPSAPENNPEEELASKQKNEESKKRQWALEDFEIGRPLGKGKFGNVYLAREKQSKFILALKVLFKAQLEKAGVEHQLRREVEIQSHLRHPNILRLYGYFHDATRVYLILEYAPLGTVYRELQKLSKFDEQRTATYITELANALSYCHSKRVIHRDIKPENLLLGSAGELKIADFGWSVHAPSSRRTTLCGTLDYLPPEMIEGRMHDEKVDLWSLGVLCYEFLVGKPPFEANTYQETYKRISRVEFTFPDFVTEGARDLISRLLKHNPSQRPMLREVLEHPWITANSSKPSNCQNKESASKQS
# run description: radiometric filter-binding kinase assay
# applied conditions: compound 100.0 µM; ATP 5 µM
measurement name: inhibition (%)

[[record]]
smiles_text = "CC(C)(C)Nc1c(COCc2ccccc2)nc2[nH]cnn12"
measurement_name = "inhibition"
readout_value = 5

[[record]]
smiles_text = "CC(C)(C)Nc1c(C2CC2)nc2[nH]cnn12"
measurement_name = "inhibition"
readout_value = 16

[[record]]
smiles_text = "Nc1nc2cnc(-c3ccccc3)cn2n1"
measurement_name = "inhibition"
readout_value = 52


---

Listed compounds paired with reported inhibition
# target of assay: PIM2 (human) (UniProt Q9P1W9)
# Sequence (Q9P1W9 whole entry, looked up): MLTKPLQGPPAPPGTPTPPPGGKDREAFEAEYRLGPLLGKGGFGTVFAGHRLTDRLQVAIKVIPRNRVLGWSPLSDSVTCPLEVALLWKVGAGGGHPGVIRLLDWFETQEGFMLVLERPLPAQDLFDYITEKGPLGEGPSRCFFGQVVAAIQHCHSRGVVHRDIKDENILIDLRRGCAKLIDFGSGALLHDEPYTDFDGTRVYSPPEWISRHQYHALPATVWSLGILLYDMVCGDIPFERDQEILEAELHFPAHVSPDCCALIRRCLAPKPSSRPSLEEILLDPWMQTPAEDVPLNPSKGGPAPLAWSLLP
# run description: radiometric filter-binding kinase assay
# applied conditions: compound 100.0 µM; ATP 5 µM
measurement name: inhibition (%)

[[record]]
smiles_text = "O=C(c1cccc(-c2cc3c(=O)[nH]cnc3s2)c1)N1CCOCC1"
target_of_assay = "PIM2 (human) (UniProt Q9P1W9)"
readout_value = 13

[[record]]
smiles_text = "O=C(Nc1cnc2[nH]cnn2c1=O)c1ccccc1"
target_of_assay = "PIM2 (human) (UniProt Q9P1W9)"
readout_value = 0

[[record]]
smiles_text = "Cc1cccc(C)c1-c1cn2nc(N)nc2cn1"
target_of_assay = "PIM2 (human) (UniProt Q9P1W9)"
readout_value = 2

[[record]]
smiles_text = "CC(=O)Nc1nc2cnc(-c3c(C)cccc3C)cn2n1"
target_of_assay = "PIM2 (human) (UniProt Q9P1W9)"
readout_value = 5

[[record]]
smiles_text = "Nc1cnc2c(-c3c(F)cccc3F)cccn2c1=O"
target_of_assay = "PIM2 (human) (UniProt Q9P1W9)"
readout_value = 21

[[record]]
smiles_text = "O=C(Nc1cnc2[nH]ccn2c1=O)c1ccccc1"
target_of_assay = "PIM2 (human) (UniProt Q9P1W9)"
readout_value = 9


src = the kinase profiling compilation of Christmann-Franck et al. (2016)
